biological target: F508delCFTR (Homo sapiens, UniProt P13569, DEL508-508); construct: expressed in transfected cells; host or cells: CFBE41o- human lung-derived epithelial cells (CFBE4lo-F508delCFTR-HRP), doxycycline-inducible; assay: Cell Surface Expression-Horse Radish Peroxidase (CSE-HRP) Assay; format: cell-based; details: test compound without co-corrector; maximum at any tested concentration, normalized to on-plate positive control; read-out: Maximum % activity (without co-corrector);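 also: percent of the 2 µM on-plate positive control corrector response above DMSO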
Sequence (P13569 with tags, fused parts or gaps DEL508-508): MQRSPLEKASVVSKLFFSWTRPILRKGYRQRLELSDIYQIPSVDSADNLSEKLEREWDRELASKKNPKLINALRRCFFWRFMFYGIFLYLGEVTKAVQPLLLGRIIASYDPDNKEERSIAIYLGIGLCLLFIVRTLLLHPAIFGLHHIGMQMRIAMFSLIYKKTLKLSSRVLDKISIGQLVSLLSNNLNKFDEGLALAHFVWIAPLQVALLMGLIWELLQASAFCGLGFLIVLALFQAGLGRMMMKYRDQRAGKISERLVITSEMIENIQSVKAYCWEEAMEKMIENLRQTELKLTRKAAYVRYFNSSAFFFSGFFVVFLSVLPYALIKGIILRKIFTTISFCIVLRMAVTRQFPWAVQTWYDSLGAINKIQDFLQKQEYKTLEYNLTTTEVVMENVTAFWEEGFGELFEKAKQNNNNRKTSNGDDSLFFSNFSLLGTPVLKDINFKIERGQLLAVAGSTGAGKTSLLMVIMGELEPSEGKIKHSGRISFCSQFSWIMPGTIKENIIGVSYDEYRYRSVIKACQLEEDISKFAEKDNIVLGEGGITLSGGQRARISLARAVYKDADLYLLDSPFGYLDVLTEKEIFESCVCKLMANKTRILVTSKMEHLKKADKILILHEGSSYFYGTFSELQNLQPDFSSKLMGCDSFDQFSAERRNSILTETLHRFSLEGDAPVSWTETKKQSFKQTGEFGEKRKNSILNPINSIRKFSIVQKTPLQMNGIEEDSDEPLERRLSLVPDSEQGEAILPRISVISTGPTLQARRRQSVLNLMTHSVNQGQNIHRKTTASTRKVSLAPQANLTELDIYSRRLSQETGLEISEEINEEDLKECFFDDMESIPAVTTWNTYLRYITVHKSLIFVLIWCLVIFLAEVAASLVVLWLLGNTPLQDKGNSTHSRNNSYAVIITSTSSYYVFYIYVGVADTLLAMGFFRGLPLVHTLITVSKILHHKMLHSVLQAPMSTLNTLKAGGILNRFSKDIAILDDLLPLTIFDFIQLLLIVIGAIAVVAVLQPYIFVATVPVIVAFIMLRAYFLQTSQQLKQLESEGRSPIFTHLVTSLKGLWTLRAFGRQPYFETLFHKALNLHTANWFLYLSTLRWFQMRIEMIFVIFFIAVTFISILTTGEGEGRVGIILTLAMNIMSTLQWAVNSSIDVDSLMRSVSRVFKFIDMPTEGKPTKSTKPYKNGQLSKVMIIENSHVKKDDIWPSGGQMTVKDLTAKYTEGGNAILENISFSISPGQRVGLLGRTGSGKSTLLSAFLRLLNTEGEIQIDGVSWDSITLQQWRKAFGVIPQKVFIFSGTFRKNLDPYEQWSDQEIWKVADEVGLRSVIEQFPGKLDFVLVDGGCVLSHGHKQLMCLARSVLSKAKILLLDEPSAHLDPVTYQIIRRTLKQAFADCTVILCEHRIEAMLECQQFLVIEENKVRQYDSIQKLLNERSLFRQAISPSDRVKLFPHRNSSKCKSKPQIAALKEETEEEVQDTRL
endpoint.label: Emax

Would you please look over these solved cases?
>>> result_value("CCC(C)(O)CC(=O)N1[C@H](C(=O)O)[C@@H](C(C)(C)C)[C@H](NCc2cc(C(C)(C)C)ccc2OC)[C@@H]1c1ccccc1 (stereo partly drawn)")
"> 200%"
>>> result_value("COc1ccc(C(C)(C)C)cc1CN[C@H]1[C@H](C(C)(C)C)[C@@H](C(=O)O)N(C(=O)c2cnn(-c3ccc(F)cc3)c2C)[C@H]1c1ccccc1")
"> 200%"
>>> result_value("COc1ccc(C(C)(C)C)cc1CN[C@@H]1[C@@H](C(C)(C)C)[C@@H](C(=O)O)N(C(=O)C2CCCCC2)[C@H]1c1ccccc1")
"< 100%"
>>> result_value("COc1ncc(C(F)(F)F)cc1CN[C@H]1[C@H](C(C)(C)C)[C@@H](C(=O)O)N(C(=O)OC(C)C)[C@H]1c1cccnc1OC")
"100 to 200%"
>>> result_value("COc1ncc(C2CCC2)cc1CN[C@H]1[C@H](C(C)(C)C)[C@@H](C(=O)O)N(C(=O)[C@@H]2CCCCO2)[C@H]1c1ccccc1F")
"100 to 200%"

For reference, reported Emax for COc1cccc([C@H]2[C@@H](NCc3cc(C(F)(F)F)ccc3OC)[C@H](C(C)(C)C)[C@@H](C(=O)O)N2C(=O)C2(C)CCCOC2)n1 (relative stereo) stands at < 100%

Each recorded value in this set is attributed to patent US20180099931A1.
